The origin of these recorded values is BindingDB's records for doi:10.1021/acs.jnatprod.8b00574.

Experiment: Inhibition of thrombin in human platelet rich plasma assessed as reduction in ADP-induced platelet aggregation after 5 mins
quantityMeasured: pIC50
# reply with the number alone; pIC50 is -log10 of concentration in mol/L

Q: For the molecule shown here, CC[C@H](CC[C@@H](C)[C@H]1CC[C@H]2[C@@H]3CC=C4C[C@@H](O)CC[C@]4(C)[C@H]3CC[C@]12C)C(C)C [stigmast-5-en-3beta-ol] , give the reported pIC50.
Ans: 2.82

----------
Assay: Inhibition of thrombin in human platelet rich plasma assessed as reduction in arachidonic acid-induced platelet aggregation after 5 mins
quantityMeasured: IC50

Q: For the molecule shown here, `CC[C@H](CC[C@@H](C)[C@H]1CC[C@H]2[C@@H]3CC=C4C[C@@H](O)CC[C@]4(C)[C@H]3CC[C@]12C)C(C)C` , give the reported IC50.
Ans: 1500 µM
